target: UniProt:B4EMD0; assay: CepR agonism in E. coli β-galactosidase reporter (Ec-reporter) JLD271 [pJN105-cepR + pSC11-cepI]; type: cell-based, B. cenocepacia; conditions: Table S2, Ec-reporter; screening conc. 100 μM
Sequence (B4EMD0 1-239): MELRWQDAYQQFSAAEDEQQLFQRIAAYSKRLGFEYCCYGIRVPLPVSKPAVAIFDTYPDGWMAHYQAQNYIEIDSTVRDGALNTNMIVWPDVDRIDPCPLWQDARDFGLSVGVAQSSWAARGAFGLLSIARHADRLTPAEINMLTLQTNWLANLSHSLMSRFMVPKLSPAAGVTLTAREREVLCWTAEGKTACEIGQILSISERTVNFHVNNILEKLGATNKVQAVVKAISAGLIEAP
Each record here notes measured Act%.
Record the value in %, omitting the unit from your answer.

Known Act% results, listed for orientation:
Query: Act%; subject: `COc1ccc(CCC(=O)N[C@H]2CCOC2=O)cc1`
92

What would you report for `[N-]=[N+]=Nc1ccc(CC(=O)N[C@H]2CCOC2=O)cc1` ?
1.0

What would you report for `CCCCCCCCCC(=O)CC(=O)NCc1ccc(OC)cc1` ?
7.6

What would you report for `CC(C)(C)OC(=O)Nc1ccc(CC(=O)N[C@H]2CCOC2=O)cc1` ?
1.1

What would you report for `CSc1ccc(CCC(=O)N[C@H]2CCOC2=O)cc1` ?
104

Now, please, on to the next compound.
Query: Act%; subject: O=C(CCCOc1ccc(Cl)cc1)NC1CCOC1=O (stereo not shown) [CL, reference compound]
110

Source: paper PMC6748986
